Reported %-inhibition of MARK4 is given for each of the following compounds.
- target of assay: panel of more than 300 wild-type and mutant kinases (313 kinase panel) (Homo sapiens, UniProt Q96L34)
- Sequence (Q96L34 whole entry, change not shown): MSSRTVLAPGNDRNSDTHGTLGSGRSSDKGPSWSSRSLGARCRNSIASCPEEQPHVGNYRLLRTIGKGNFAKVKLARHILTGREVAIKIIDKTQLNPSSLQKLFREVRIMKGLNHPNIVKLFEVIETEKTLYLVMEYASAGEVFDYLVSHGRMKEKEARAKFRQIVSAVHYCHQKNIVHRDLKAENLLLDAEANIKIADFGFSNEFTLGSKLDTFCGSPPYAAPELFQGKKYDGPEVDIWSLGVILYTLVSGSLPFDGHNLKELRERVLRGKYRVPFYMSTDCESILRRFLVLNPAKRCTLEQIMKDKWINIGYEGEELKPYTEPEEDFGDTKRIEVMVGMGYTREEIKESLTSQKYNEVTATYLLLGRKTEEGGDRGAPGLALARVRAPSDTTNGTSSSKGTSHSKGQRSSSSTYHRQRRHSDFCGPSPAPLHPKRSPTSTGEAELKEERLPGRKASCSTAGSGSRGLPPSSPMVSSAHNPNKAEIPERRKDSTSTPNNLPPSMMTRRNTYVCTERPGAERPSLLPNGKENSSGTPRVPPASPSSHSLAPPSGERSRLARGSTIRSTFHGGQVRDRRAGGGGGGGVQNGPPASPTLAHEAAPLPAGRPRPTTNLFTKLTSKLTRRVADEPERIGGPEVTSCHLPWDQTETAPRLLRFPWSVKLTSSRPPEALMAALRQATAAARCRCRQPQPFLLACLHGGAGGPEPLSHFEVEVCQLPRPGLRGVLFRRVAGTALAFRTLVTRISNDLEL
- assay comment: Kinase profiling in a biochemical assay panel (mobility shift assays and ELISA), %-inhibition at 1 μM; selectivity entropy
- setup conditions: kinase MARK4; compound at 1 μM
Quick reminder: number only, in %, skip the unit.

Examples from the recorded data:
[[record]]
compound = "O=S(=O)(c1cccc2cnccc12)N1CCCNCC1"
numeric_readout = -21

[[record]]
compound = "CNC(=O)c1cc(Oc2ccc(NC(=O)Nc3ccc(Cl)c(C(F)(F)F)c3)c(F)c2)ccn1"
numeric_readout = -16

[[record]]
compound = "CC(=O)Nc1cccc(-n2c(=O)n(C3CC3)c(=O)c3c(Nc4ccc(I)cc4F)n(C)c(=O)c(C)c32)c1"
numeric_readout = -15

[[record]]
compound = "N#CC[C@H](C1CCCC1)n1cc(-c2ncnc3[nH]ccc23)cn1"
numeric_readout = 53

[[record]]
compound = "COc1cc2nccc(Oc3ccc(NC(=O)C4(C(=O)Nc5ccc(F)cc5)CC4)cc3)c2cc1OC [cabozantinib]"
numeric_readout = -9

[[record]]
compound = "Cc1cn(-c2cc(NC(=O)c3ccc(C)c(Nc4nccc(-c5cccnc5)n4)c3)cc(C(F)(F)F)c2)cn1"
numeric_readout = 12

[[record]]
compound = "CS(=O)(=O)CCNCc1ccc(-c2ccc3ncnc(Nc4ccc(OCc5cccc(F)c5)c(Cl)c4)c3c2)o1"
numeric_readout = 10

[[record]]
compound = "CO[C@H]1C[C@@H]2CC[C@@H](C)[C@@](O)(O2)C(=O)C(=O)N2CCCC[C@H]2C(=O)O[C@H]([C@H](C)C[C@@H]2CC[C@@H](OC(=O)C(C)(CO)CO)[C@H](OC)C2)CC(=O)[C@H](C)/C=C(\\C)[C@@H](O)[C@@H](OC)C(=O)[C@H](C)C[C@H](C)/C=C/C=C/C=C/1C"
numeric_readout = -26

[[record]]
compound = "Cc1ccc(C(=O)Nc2ccc(CN3CCN(C)CC3)c(C(F)(F)F)c2)cc1C#Cc1cnc2cccnn12"
numeric_readout = -2.58

[[record]]
compound = "COc1cc2c(Nc3ccc(Br)cc3F)ncnc2cc1OCC1CCN(C)CC1"
numeric_readout = 2.39


%-inhibition of MARK4 reported for this compound CCN(CC)CCNC(=O)c1c(C)[nH]c(/C=C2\C(=O)Nc3ccc(F)cc32)c1C : 92

Lab note: measured %-inhibition of MARK4 of C[C@@H](Oc1cc(-c2cnn(C3CCNCC3)c2)cnc1N)c1c(Cl)ccc(F)c1Cl was 51

Entry CCCS(=O)(=O)Nc1ccc(F)c(C(=O)c2c[nH]c3ncc(-c4ccc(Cl)cc4)cc23)c1F ; %-inhibition of MARK4 = 3.78
